Molecular target: Large T antigen (Simian virus 40)
Assay: SV40 large T antigen inhibitors, biochemical (AID 1903)
Conditions: SV40 large T antigen ATPase/helicase inhibition assay; at 20 µM; active compounds read high
About 1,200 (0.39%) of roughly 310,000 compounds were called active. A selection follows. Entries with a potency or affinity are not part of this list.
As shown below, each of these molecules has a reported inhibition value.
# value in %; strip the unit string

Exercise: Value lookup for inhibition; key = CCN=C1S/C(=C\c2cc(Br)c(O)c(OC)c2)C(=O)N1CC
Solution: 25.1

Exercise: Value lookup for inhibition; key = O=C(O)c1cc(NCc2cccs2)ccc1N1CCOCC1
Solution: 16.1

Exercise: Value lookup for inhibition; key = O=C(Nc1ccc2c(c1)OCCO2)c1ccco1
Solution: 30.4

Exercise: Value lookup for inhibition; key = CCOc1ccc(/C=C2\SC(=S)N(NS(=O)(=O)c3ccc(C)cc3)C2=O)cc1OC
Solution: 31.2

Exercise: Value lookup for inhibition; key = CC(C)Oc1ccc(CN2CCCC(CO)(Cc3ccc(F)cc3)C2)cc1 (stereo not drawn)
Solution: 6.25

Exercise: Value lookup for inhibition; key = COc1cc(/C=C2\SC(=S)N(NS(=O)(=O)c3ccc(C)cc3)C2=O)cc(OC)c1OC
Solution: 20.8

Exercise: Value lookup for inhibition; key = Cc1cc(Cl)ccc1NC(=O)CN1C(=O)NC2(CCCc3ccccc32)C1=O (stereo not drawn)
Solution: 25.2

Exercise: Value lookup for inhibition; key = COC(=O)CCCCCCCCCC[N+]1(C)CCCCC1
Solution: -2.24

Exercise: Value lookup for inhibition; key = CCOc1cc(/C=C2\SC(=S)N(NS(=O)(=O)c3ccccc3)C2=O)ccc1O
Solution: 38.4

Exercise: Value lookup for inhibition; key = Cc1[nH]c(=O)[nH]c(=S)c1C(=O)Nc1ccc(Cl)c(Cl)c1
Solution: -9.05

Exercise: Value lookup for inhibition; key = O=C(OC1CCCCC1=O)c1cccc(S(=O)(=O)N2CCOCC2)c1 (stereo not drawn)
Solution: 1.22

Exercise: Value lookup for inhibition; key = Cc1cc(C)cc(OCc2nnc(SCC(=O)NC3CC3)n2C)c1
Solution: -1.01

Exercise: Value lookup for inhibition; key = CC(=O)Nc1ccc(NCc2cccs2)cc1
Solution: 15.1

Exercise: Value lookup for inhibition; key = CCOc1cc(/C=C2\SC(=S)N(NC(=O)c3cccnc3)C2=O)ccc1O
Solution: 33.1

----------
Biological target: Large T antigen (Simian virus 40)
Experiment: SV40 large T antigen inhibitors, biochemical (AID 1903)
Settings: SV40 large T antigen ATPase/helicase inhibition assay; at 20 µM; active compounds read high
Hit rate of the full screen: of about 310,000 compounds, about 1,200 (0.39%) were called active. The list is a sample of the results. Results with a measured potency or affinity are listed apart.
As shown below, each of these molecules has a reported inhibition value.
# value in %; strip the unit string

Exercise: Value lookup for inhibition; key = CCN(CC)c1ccc(NC(=O)CSc2nc(C)cc(=O)[nH]2)cc1
Solution: 35.5

Exercise: Value lookup for inhibition; key = O=C(CSc1nc2c(c(=O)[nH]1)CCC2)Nc1ccc(F)cc1
Solution: 22

----------
Target: Large T antigen (Simian virus 40) (UniProt P03070)
Sequence (P03070 whole entry, looked up): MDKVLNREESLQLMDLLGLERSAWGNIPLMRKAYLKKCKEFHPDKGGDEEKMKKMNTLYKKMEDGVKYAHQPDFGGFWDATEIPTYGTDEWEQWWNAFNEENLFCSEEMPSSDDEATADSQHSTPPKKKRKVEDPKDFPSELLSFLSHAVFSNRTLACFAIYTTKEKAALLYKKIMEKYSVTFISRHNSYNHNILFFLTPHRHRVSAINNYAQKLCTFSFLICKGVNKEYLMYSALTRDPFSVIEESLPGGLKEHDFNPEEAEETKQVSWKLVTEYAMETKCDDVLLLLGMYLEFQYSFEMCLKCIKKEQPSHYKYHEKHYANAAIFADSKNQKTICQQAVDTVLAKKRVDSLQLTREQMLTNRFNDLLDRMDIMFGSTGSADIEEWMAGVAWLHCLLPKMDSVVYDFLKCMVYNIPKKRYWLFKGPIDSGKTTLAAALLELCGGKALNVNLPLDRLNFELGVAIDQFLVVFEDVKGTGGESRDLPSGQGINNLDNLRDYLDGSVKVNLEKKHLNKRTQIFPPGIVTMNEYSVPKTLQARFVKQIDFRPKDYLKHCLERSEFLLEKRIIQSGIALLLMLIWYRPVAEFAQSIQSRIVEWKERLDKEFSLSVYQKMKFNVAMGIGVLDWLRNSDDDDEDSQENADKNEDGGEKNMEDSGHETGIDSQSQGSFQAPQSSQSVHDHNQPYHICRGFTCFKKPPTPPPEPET
Assay: SV40 large T antigen inhibitors, biochemical (AID 1903)
Settings: SV40 large T antigen ATPase/helicase inhibition assay; at 20 µM; active compounds read high
The whole screen tested about 310,000 compounds, of which about 1,200 (0.39%) were called active. Not all results are given here. Results with a measured potency or affinity are listed apart.
As shown below, each of these compounds has a reported inhibition value.
# value in %; strip the unit string

# annotated cases, reported inhibition shown
>  <compound>
CCC(C)N(C(=O)c1csnn1)C(C(=O)NC1CCCC1)c1c(F)cccc1Cl (stereo unspecified)

>  <data value>
7.33

$$$$
>  <compound>
COC(=O)c1nn(-c2nc(-c3ccc(OC)c(OC)c3)cc(C(F)(F)F)n2)cc1[N+](=O)[O-]

>  <data value>
9.35

$$$$
>  <compound>
O=C(NCc1cccs1)C(=O)c1c[nH]c2ccccc12

>  <data value>
-25.6

$$$$

Exercise: Value lookup for inhibition; key = CN(C)c1ccc(C(=O)NCC2CCCO2)cc1 (stereo unspecified)
Solution: 5.69

Exercise: Value lookup for inhibition; key = CCn1c(COc2ccc(C)cc2)nc2ccccc21
Solution: 3.75

Exercise: Value lookup for inhibition; key = C/C(=N\NC(=O)c1ccc(N)cc1)C1CC1
Solution: 9.62
